- study_target: T1, recombinant human IL-31 (hIL-31, BHK produced, A1277F, zcytor17lig CEE) (human, UniProt Q6EBC2 24-164)
- T1 construct: also called recombinant hIL-31
- T1 sequence: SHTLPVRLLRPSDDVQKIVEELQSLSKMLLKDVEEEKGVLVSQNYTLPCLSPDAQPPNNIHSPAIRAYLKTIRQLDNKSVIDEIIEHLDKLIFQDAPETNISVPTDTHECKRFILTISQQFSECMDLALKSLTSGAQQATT
- protocol_summary: SPR (Biacore), mAb amine-coupled to CM5 chip, hIL-31 injected
- Method: The purified monoclonal antibodies were immobilized in individual flow cells on a CM5 type sensor chip. Immobilizations were performed using a standard amine coupling procedure, aiming for an immobilization level of 500 Resonance Units (RU). The antibodies were diluted to 1-5 ug/ml in 10 mM NaAc pH 4.5. […] The kinetic parameters were calculated by global fitting of the data using a 1:1 langmuir binding model. […]
Items are presented alongside their recorded Kd.
Write the value in nM as a bare number.

binder	Kd / nM
humanized 292.12.3.1 construct clone 31 (12VH1-gly + HC(F29L, M69L, R71A, V78A, R94F) + LC(F71Y)) (antibody, human IgG4, V domains shown) VH: QVQLVQSGAEVKKPGASVKVSCKASGYTLTRYWMQWVRQAPGQGLEWMGAIYPGDGDTRYSQKFQGRVTLTADTSISTAYMELSSLRSEDTAVYYCAFPDGYYAAPYGMDYWGQGTLVTVSS VL: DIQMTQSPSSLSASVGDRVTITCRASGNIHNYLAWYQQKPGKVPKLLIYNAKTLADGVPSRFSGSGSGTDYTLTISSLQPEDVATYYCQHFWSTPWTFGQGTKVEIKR	0.77
humanized 292.12.3.1 construct clone 7 (12VH1-gly + fback) (antibody, human IgG4, V domains shown, also called 07) VH: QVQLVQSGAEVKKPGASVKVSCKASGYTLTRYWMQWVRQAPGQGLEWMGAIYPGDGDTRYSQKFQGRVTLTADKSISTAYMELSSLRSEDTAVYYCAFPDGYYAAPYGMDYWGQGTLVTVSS VL: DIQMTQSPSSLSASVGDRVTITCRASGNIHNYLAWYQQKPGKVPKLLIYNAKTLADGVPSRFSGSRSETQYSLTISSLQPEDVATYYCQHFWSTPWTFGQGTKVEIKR	1.9

Need Kd of humanized 292.12.3.1 construct clone 27 (12VH1-gly + HC(F29L, M69L, R94F) + LC(F71Y)) (antibody, human IgG4, V domains shown) VH: QVQLVQSGAEVKKPGASVKVSCKASGYTLTRYWMQWVRQAPGQGLEWMGAIYPGDGDTRYSQKFQGRVTLTRDTSISTVYMELSSLRSEDTAVYYCAFPDGYYAAPYGMDYWGQGTLVTVSS VL: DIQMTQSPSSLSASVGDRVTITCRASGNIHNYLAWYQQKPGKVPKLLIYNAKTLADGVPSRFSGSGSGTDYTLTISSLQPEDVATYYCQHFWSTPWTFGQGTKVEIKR , thanks.
0.8
